protocol.notes: In vivo pharmacokinetic study in beagle dogs after single administration
conditions: male, dog, plasma, 2 mg/kg, 2 mpk intravenous injection
measurement.label: C0 (µM)
Give bare numbers, in µM.

GET /value?item= COCCN1C[C@@H](n2ccc(F)c2)[C@H](NC(=O)Nc2c(C)c(-c3cnc(C4(F)COC4)nc3)nn2-c2ccccc2)C1 &field=C0 returns 8.46

---

protocol.notes: In vivo pharmacokinetic study in rats after single administration
conditions: male, Sprague Dawley, rat, plasma, 300 mg/kg, 300 mpk oral administration
Protocol: Male SD rats were used as test animals, and the concentration of the compound in blood was determined after single administration to evaluate the pharmacokinetic behavior. Sprague Dawley rats (male, 200-300 g, 7-9 weeks, Shanghai Charles River Laboratory Animal Co., Ltd.) […]
measurement.label: AUC(0-inf) (µM·h)
Give bare numbers, in µM·h.

GET /value?item= COCCN1C[C@@H](n2ccc(F)c2)[C@H](NC(=O)Nc2c(C)c(-c3cnc(C4(F)COC4)nc3)nn2-c2ccccc2)C1 &field=AUC(0-inf) returns 276

---

protocol.notes: In vivo pharmacokinetic study in beagle dogs after single administration
conditions: male, dog, plasma, 2 mg/kg, 2 mpk intravenous injection, read-out: Vdss
measurement.label: Vd (L/kg)
Answers are plain numbers, in L/kg.

GET /value?item= COCCN1C[C@@H](n2ccc(F)c2)[C@H](NC(=O)Nc2c(C)c(-c3cnc(C4(F)COC4)nc3)nn2-c2ccccc2)C1 [Compound of formula (I)] &field=Vd returns 0.49

---

protocol.notes: In vivo pharmacokinetic study in beagle dogs after single administration
conditions: male, dog, plasma, 2 mg/kg, 2 mpk intravenous injection
measurement.label: half-life (min)
Give bare numbers, in min.

GET /value?item= COCCN1C[C@@H](n2ccc(F)c2)[C@H](NC(=O)Nc2c(C)c(-c3cnc(C4(F)COC4)nc3)nn2-c2ccccc2)C1 &field=half-life returns 26.4

---

protocol.notes: In vivo pharmacokinetic study in mice after single administration
Parameters: species or system CD-1 mice
conditions: male, CD-1, mouse, plasma, 100 mg/kg, 100 mpk oral administration
Method: Male CD-1 mice were used as test animals, the concentration of the compound in blood was determined after single administration to evaluate the pharmacokinetic behavior. CD-1 mice (male, 20-40 g, 6-9 weeks, Shanghai Sippr-Bk Laboratory Animal Co., Ltd.) […]
measurement.label: Cmax (µM)
Numbers only, in µM.

GET /value?item= COCCN1C[C@@H](n2ccc(F)c2)[C@H](NC(=O)Nc2c(C)c(-c3cnc(C4(F)COC4)nc3)nn2-c2ccccc2)C1 &field=Cmax returns 25.6

---

measured.target: CYP3A4 (Homo sapiens)
Construct: from tissue; host or cells: human liver microsomes
Sequence (P08684 whole entry): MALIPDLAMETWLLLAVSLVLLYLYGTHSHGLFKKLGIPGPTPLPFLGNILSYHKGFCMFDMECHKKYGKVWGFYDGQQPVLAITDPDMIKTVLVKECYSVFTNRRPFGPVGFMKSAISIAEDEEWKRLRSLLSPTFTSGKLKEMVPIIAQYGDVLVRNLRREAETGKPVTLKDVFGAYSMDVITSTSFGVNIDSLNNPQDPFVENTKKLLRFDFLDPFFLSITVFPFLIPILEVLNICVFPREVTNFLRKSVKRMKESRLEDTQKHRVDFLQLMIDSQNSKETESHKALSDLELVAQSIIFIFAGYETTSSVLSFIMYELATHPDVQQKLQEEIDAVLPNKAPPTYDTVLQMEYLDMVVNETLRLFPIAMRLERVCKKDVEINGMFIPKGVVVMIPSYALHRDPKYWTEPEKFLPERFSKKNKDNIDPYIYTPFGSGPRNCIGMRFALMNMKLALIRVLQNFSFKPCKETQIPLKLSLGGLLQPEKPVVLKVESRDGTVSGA
protocol.notes: Cytochrome P450 isozyme inhibitory activity test, CYP3A4
Format: in vitro ADME
conditions: liver microsomes; human liver microsome
measurement.label: IC50 at 10 min

Short answer on CYP3A4 (Homo sapiens) for COCCN1C[C@@H](n2ccc(F)c2)[C@H](NC(=O)Nc2c(C)c(-c3cnc(C4(F)COC4)nc3)nn2-c2ccccc2)C1 [Compound of formula (I)] , IC50 at 10 min: > 50 µM

---

protocol.notes: In vivo pharmacokinetic study in beagle dogs after single administration
conditions: male, dog, plasma, 2 mg/kg, 2 mpk intravenous injection
measurement.label: AUC(0-inf)
Please state the number and follow it with the unit.

GET /value?item= COCCN1C[C@@H](n2ccc(F)c2)[C@H](NC(=O)Nc2c(C)c(-c3cnc(C4(F)COC4)nc3)nn2-c2ccccc2)C1 &field=AUC(0-inf) returns 4.66 µM·h
